System: 4 PI3K isoforms (Human recombinant GST-PI3K)
Assay: PI3K scintillation proximity assay, best IC50 obtained with the four isoforms (alpha, beta, delta, gamma)
Assay type: biochemical
Settings: best IC50 obtained with the four isoforms of PI3K; read-out: Best potency measured on the 4 PI3K isoforms
Exercise: for every item that follows, state its recorded IC50.
Numbers only, in nM.

Below are worked cases with known answers.
>>> print(df.to_string())
                                   compound  property_measured  units_label  recorded_value
0  O=C(c1ccc2c(c1)-c1c(c(C(=O)N3CCOCC3)nn1-c1ccccc1)CS2(=O)=O)N1CCCCC1 [Example 117]               IC50           nM            3410
1  COCCOc1cccc(-n2nc(C(=O)N3CCOCC3)c3c2-c2ccccc2S(=O)(=O)C3)c1 [Example 341]               IC50           nM             726
2  CN(C)CCCn1nc(C(=O)N2CCOCC2)c2c1-c1ccccc1S(=O)(=O)C2 [Example 69]               IC50           nM            3110
3  O=C(c1nn(CCc2ccccc2)c2c1CS(=O)(=O)c1ccccc1-2)N1CCOCC1 [Example 41]               IC50           nM            1440
4  O=C(c1nn([C@@H]2CCCN(CCC3CCOCC3)C2)c2c1CS(=O)(=O)c1ccccc1-2)N1CCOCC1 (single isomer, unassigned) [Example 307]               IC50           nM            2200

Would you be so kind as to report IC50 for each listed record?
1. NCCN1CCC[C@H](n2nc(C(=O)N3CCOCC3)c3c2-c2ccccc2S(=O)(=O)C3)C1 (single isomer, unassigned) [Example 452]
2. O=C(c1nn(C2CCN(CCC3CCOCC3)CC2)c2c1CS(=O)(=O)c1ccccc1-2)N1CCOCC1 [Example 285]
3. CC(=O)Nc1nc2c(s1)S(=O)(=O)Cc1c(C(=O)N3CCOCC3)nn(C3CCOCC3)c1-2 [Example 289]

73
692
284

Would you be so kind as to report IC50 for each listed record?
1. O=C(c1nn(C2CCCN(C3CCOCC3)C2)c2c1CS(=O)(=O)c1ccccc1-2)N1CCOCC1 (stereo not shown) [Example 293]
2. O=C(c1nn(-c2ccc(CN3CCC(F)CC3)cc2)c2c1CS(=O)(=O)c1ccccc1-2)N1CCOCC1 [Example 167]
3. O=C(c1nn([C@@H]2CCCN(CCn3ccnc3)C2)c2c1CS(=O)(=O)c1ccccc1-2)N1CCOCC1 (single isomer, unassigned) [Example 411]
4. O=C(c1nn(-c2ccc(C3(CN4CCOCC4)CC3)cc2)c2c1CS(=O)(=O)c1ccccc1-2)N1CCOCC1 [Example 462]

1. 254
2. 247
3. 444
4. 995

Would you be so kind as to report IC50 for each listed record?
1. CC(=O)NCCN1CCC[C@H](n2nc(C(=O)N3CCOCC3)c3c2-c2ccccc2S(=O)(=O)C3)C1 (stereo in doubt) [Example 444]
2. Cc1ccccc1-c1cccc(-n2nc(C(=O)N3CCOCC3)c3c2-c2ccccc2S(=O)(=O)C3)c1 [Example 160]
3. O=C(c1nn(-c2cccnc2)c2c1CS(=O)(=O)c1ccccc1-2)N1CCOCC1 [Example 88]
4. O=C(c1nn(C2CN(CCC3CCOCC3)C2)c2c1CS(=O)(=O)c1ccccc1-2)N1CCOCC1 [Example 405]
5. CC(C)(C)OC(=O)N1CCC(n2nc(C(=O)N3CCOCC3)c3c2-c2ccccc2S(=O)(=O)C3)C1 (stereo not shown) [Example 254]
6. O=C(c1nn(C2CCN(CCO)CC2)c2c1CS(=O)(=O)c1ccccc1-2)N1CCOCC1 [Example 121]
7. O=C(c1nn([C@H]2CCCN(CCN3CCC(F)C3)C2)c2c1CS(=O)(=O)c1ccccc1-2)N1CCOCC1 (single isomer, unassigned) [Example 367]
8. O=C(c1nn([C@H]2CCCN(Cc3cccnc3)C2)c2c1CS(=O)(=O)c1ccccc1-2)N1CCOCC1 (stereo in doubt) [Example 466]

1. 105
2. 1080
3. 1130
4. 95
5. 1200
6. 1760
7. 32
8. 85

Would you be so kind as to report IC50 for each listed record?
1. O=C(c1nn(C2CCCN(CCC3CCOCC3)C2)c2c1CS(=O)(=O)c1ncccc1-2)N1CCOCC1 (stereo not shown) [Example 408]
2. Cc1ccncc1-n1nc(C(=O)N2CCOCC2)c2c1-c1ccccc1S(=O)(=O)C2 [Example 31]
3. O=C(c1nn([C@H]2CCCN(CCN3CC(F)(F)C3)C2)c2c1CS(=O)(=O)c1ccccc1-2)N1CCOCC1 (single isomer, unassigned) [Example 362]
4. O=C(c1nn([C@H]2CCCN(CCC3CCOCC3)C2)c2c1CS(=O)(=O)c1c(F)cccc1-2)N1CCOCC1 (single isomer, unassigned) [Example 344]
5. CC1CN(Cc2ccc(-n3nc(C(=O)N4CCOCC4)c4c3-c3ccccc3S(=O)(=O)C4)cc2)CCO1 (stereo not shown) [Example 432]
6. COCCN(C)CCN1CCC[C@H](n2nc(C(=O)N3CCOCC3)c3c2-c2ccccc2S(=O)(=O)C3)C1 (stereo in doubt) [Example 438]

61
4040
17
6
105
45

Would you be so kind as to report IC50 for each listed record?
1. CS(=O)(=O)C1CCN(Cc2ccc(-n3nc(C(=O)N4CCOCC4)c4c3-c3ccccc3S(=O)(=O)C4)cc2)C1 (stereo not shown) [Example 229]
2. COc1ccc(-n2nc(C(=O)N3CCOCC3)c3c2-c2ccccc2S(=O)(=O)C3)cn1 [Example 131]

920
2200
